Assay: in vivo
Conditions: rat, in vivo, ip, 58.8 mg/kg
quantity kind: concentration at 2 h (ng/mL)
Write the answer as a number in ng/mL, unit excluded.

What value of measured concentration at 2 h is listed for CC(C)Cc1ccc(C(C)C(=O)O)cc1 (stereo not shown) ?
18300

----------
Experiment: in vivo
Settings: rat, in vivo, ip, 58.8 mg/kg
quantity kind: concentration at 1 h

Name the reported concentration at 1 h value associated with the compound CC(C)Cc1ccc(C(C)C(=O)O)cc1 (stereo not shown)
105 µg/mL

----------
Assay: in vivo
Conditions: rat, in vivo, po, 58.8 mg/kg
quantity kind: concentration at 1 h (µg/mL)
Reply numerically in µg/mL, unit not repeated.

Quick one: concentration at 1 h for CC(C)Cc1ccc(C(C)C(=O)O)cc1 (stereo not shown) [Ibuprofen, 2-(4-isobutyl-phenyl) propionic acid] ?
71.7

Provenance of the data: patent US4379091A
